- Target Desc: T1, human ANGPTL8 (human, UniProt Q6UXH0 22-198)
- T1 construct: Biotinylated in the ELISA assays; also called hANGPTL8; free ANGPTL8
- T1 sequence: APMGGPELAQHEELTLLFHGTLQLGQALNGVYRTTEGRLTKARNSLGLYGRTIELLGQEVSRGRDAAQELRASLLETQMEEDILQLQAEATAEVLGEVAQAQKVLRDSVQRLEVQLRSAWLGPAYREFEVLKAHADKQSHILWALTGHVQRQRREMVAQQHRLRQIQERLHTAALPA
- Assay Protocol: ELISA; Ab captured by anti-human Fc; biotinylated antigen at 0.412 nM
Reported Endpoint: OD at 560 nm (OD 560 nm)
# output: bare number, implied unit OD 560 nm

Ask: Fill in: OD at 560 nm of Ab with LC variant having a D33A mutation (SEQ ID NO:22) and a HC of SEQ ID NO:6 (antibody, human IgG4 S228P, kappa, F234A L235A, V domains shown, also called D33A Variant Ab; D33A Ab) VH: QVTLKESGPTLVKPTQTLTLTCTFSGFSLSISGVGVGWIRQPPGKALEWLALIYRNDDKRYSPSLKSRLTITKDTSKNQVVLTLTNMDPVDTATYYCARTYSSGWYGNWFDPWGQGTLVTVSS VL: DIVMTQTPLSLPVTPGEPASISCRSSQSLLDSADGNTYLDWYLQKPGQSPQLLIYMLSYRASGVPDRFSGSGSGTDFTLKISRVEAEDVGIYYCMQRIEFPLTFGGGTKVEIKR is ___
Reply: 0.047

Ask: Fill in: OD at 560 nm of Ab with LC variant having a E99Q mutation (SEQ ID NO:25) and a HC of SEQ ID NO:6 (antibody, human IgG4 S228P, kappa, F234A L235A, V domains shown, also called E99Q Variant Ab; E99Q Ab) VH: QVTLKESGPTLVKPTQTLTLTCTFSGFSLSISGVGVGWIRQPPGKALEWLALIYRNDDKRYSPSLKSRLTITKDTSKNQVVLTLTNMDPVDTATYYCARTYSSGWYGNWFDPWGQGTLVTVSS VL: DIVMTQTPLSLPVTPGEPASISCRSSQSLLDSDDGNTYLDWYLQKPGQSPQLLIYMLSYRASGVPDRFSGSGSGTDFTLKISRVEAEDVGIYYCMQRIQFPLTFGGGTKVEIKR is ___
Reply: 0.062

Ask: Fill in: OD at 560 nm of Ab with LC variant having a D31S mutation (SEQ ID NO:21) and a HC of SEQ ID NO:6 (antibody, human IgG4 S228P, kappa, F234A L235A, V domains shown, also called D31S Variant Ab; D31S Ab) VH: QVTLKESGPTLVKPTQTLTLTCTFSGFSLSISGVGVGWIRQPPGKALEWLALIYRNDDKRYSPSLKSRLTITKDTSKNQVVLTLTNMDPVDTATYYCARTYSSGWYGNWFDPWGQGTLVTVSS VL: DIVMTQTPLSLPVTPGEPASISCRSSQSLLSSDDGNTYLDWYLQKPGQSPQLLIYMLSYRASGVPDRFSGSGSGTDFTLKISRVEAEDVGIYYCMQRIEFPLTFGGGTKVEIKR is ___
Reply: 0.062

Ask: Fill in: OD at 560 nm of anti-ANGPTL3/8 complex Ab having a LC of SEQ ID NO:5 and a HC of SEQ ID NO:6 (antibody, human IgG4 S228P, kappa, F234A L235A, V domains shown, In the ELISA assays tested as IgG from CHO supernatants; also called the Ab) VH: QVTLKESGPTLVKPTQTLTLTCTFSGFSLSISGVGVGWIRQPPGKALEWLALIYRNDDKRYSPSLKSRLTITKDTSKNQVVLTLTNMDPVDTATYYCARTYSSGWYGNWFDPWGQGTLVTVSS VL: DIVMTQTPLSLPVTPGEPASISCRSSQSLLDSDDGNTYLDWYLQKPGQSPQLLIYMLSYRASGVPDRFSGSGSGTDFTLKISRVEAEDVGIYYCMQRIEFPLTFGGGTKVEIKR is ___
Reply: 0.046
